test-summary: Evaluation of bioavailability in rat
Format: in vivo, male SD(IGS) rats
test-settings: male, SD(IGS), iv, 3 mg/kg i.v., plasma, Mean + SD, read-out: Cmax (C5 min, plasma concentration at 5 min after administration)
assay-endpoint: Cmax at 5 min (ng/mL)
Express your answer in ng/mL, writing the number without its unit.

Answer with the recorded Cmax at 5 min for the molecule listed here: CC(=O)NC1(c2ccc(CN3C[C@@H]4C[C@H]3CN4c3ncccn3)cc2)CC1 [test compound B] 1600

Answer with the recorded Cmax at 5 min for the molecule listed here: CC(=O)NC1(c2ccc(CN3CCN(c4ncccn4)CC3)cn2)CC1 [test compound C] 4510

----------
test-summary: Evaluation of bioavailability in rat
Format: in vivo, male SD(IGS) rats
test-settings: male, SD(IGS), plasma, oral, 3 mg/kg p.o. vs 3 mg/kg i.v., F = (AUC0-∞,p.o./AUC0-∞,i.v.,mean) × (Dosei.v./Dosep.o.) × 100
Description: Test compound A, test compound B and test compound C were each dissolved in 0.5% aqueous HPMC (hydroxypropyl methylcellulose) solution in the case of oral administration, or in saline in the case of intravenous administration, and they were orally or intravenously administered to male SD(IGS) rats (Charles River Laboratories Japan) by 3 mg/kg. […]
Kindly state bioavailability for each of the entries shown.
Express your answer in %, writing the number without its unit.

Answer with the recorded bioavailability for the molecule listed here: CC(=O)NC1(c2ccc(CN3C[C@@H]4C[C@H]3CN4c3ncccn3)cc2)CC1 [test compound B] 75.5

Answer with the recorded bioavailability for the molecule listed here: CC(=O)NC1(c2ccc(CN3CCN(c4ncccn4)CC3)cn2)CC1 [test compound C] 80.7

----------
test-summary: Evaluation of intracerebral transitivity in rat
Type: in vivo, SD(IGS) rats
test-settings: SD(IGS), brain, po, 3 mg/kg orally, 1 hr after administration, read-out: Kp value (ratio of plasma concentration and intracerebral concentration)
Kindly state Kp at 1 h for each of the entries shown.
Please give only the number in your answer, with no unit.

Answer with the recorded Kp at 1 h for the compound listed here: CC(=O)NC1(c2ccc(CN3CCN(c4ncccn4)CC3)cn2)CC1 [test compound C] 0.8

Answer with the recorded Kp at 1 h for the compound listed here: CC(=O)NC1(c2ccc(CN3C[C@@H]4C[C@H]3CN4c3ncccn3)cc2)CC1 [test compound B] 0.8
